assay_details: chemical genetic growth profiling, strain panel (AID 1159580);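 further: tested at 20 µM; growth read once vehicle control cultures reached saturation at 30 °C; 1 = growth at the plate median or of vehicle wells; lower values mean less growth of the strain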
condition_summary: S. cerevisiae deletion strains, growth OD, locus YDR363W, strain ESC2, hits give low values
Out of some 5,500 compounds screened, about 2,000 (36%) were called active. Roughly 18% stayed inconclusive and do not appear here. This is one part of the list.
For each entry below, report its normalized growth value.
Just the number, please, no unit attached.

Entry CC(C)c1cccc(C(C)C)c1O : reported normalized growth = ?
0.973

Entry CCCN(CCC)C(=O)Cc1c(-c2ccc(Cl)cc2)nc2c(Cl)cc(Cl)cn12 : reported normalized growth = ?
1.01

Entry CCNC(=O)N1CCN(CCCC(c2ccc(F)cc2)c2ccc(F)cc2)CC1 : reported normalized growth = ?
1.04

Entry NCCCP(=O)(O)O : reported normalized growth = ?
0.956

Entry CNCCC(Oc1ccccc1C)c1ccccc1 (stereo not given) : reported normalized growth = ?
0.968

* * *

For each entry below, report its normalized growth value.
assay_details: chemical genetic growth profiling, strain panel (AID 1159580);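 further: tested at 20 µM; growth read once vehicle control cultures reached saturation at 30 °C; 1 = growth at the plate median or of vehicle wells; lower values mean less growth of the strain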
condition_summary: S. cerevisiae deletion strains, growth OD, locus YLR342W, strain FKS1, hits give low values
The whole screen tested about 5,500 compounds, of which about 2,000 (36%) were called active. Another 18% or so got no clear call; they are omitted. The list shows a part of the results.

Entry C[C@H]1O[C@@H](O[C@H]2[C@@H](O)C[C@H](O[C@H]3[C@@H](O)C[C@H](O[C@H]4CC[C@]5(C)C6C[C@@H](O)[C@]7(C)[C@@H](C8=CC(=O)OC8)CC[C@]7(O)C6CC[C@@H]5C4)O[C@@H]3C)O[C@@H]2C)C[C@H](O)[C@@H]1O (stereo partly drawn) : reported normalized growth = ?
0.983 (inactive)

Entry COC(=O)N/N=C\c1c[n+]([O-])c2ccccc2[n+]1[O-] : reported normalized growth = ?
0.997 (inactive)

Entry CC1(C)[C@@H]2CC[C@@]1(C)C(=O)C2 : reported normalized growth = ?
1.01 (inactive)

Entry CC(=O)OC1CC[C@@]2(C)C(CCC3C2CC[C@]2(C)C(C4=CC(=O)OC4)C(OC(C)=O)CC32O)C1 (stereo partly drawn) : reported normalized growth = ?
1.01 (inactive)

Entry Cc1ccccc1N1C(=O)c2cc(S(N)(=O)=O)c(Cl)cc2NC1C (stereo not drawn) : reported normalized growth = ?
0.983 (inactive)

Entry COC1=CC(C)[C@@H]2C[C@H]3OC(=O)C[C@H]4C(C)=C(OC)C(=O)C([C@@]34C)[C@@]2(C)C1=O (stereo partly drawn) : reported normalized growth = ?
0.976 (inactive)

Entry CC[C@@]1(O)C(=O)OCc2c1cc1n(c2=O)Cc2cc3cc(O)ccc3nc2-1 : reported normalized growth = ?
1.01 (inactive)

Entry COC1CC(O[C@H]2CC[C@]3(C=O)C4CC[C@]5(C)C(C6=CC(=O)OC6)CC[C@]5(O)C4CC[C@]3(O)C2)OC(C)C1O (stereo partly drawn) : reported normalized growth = ?
1 (inactive)

Entry COC1CC(OC2CCC3(C)C(CCC4C3CCC3(C)C(C5=CC(=O)OC5)C(OC(C)=O)CC43O)C2)OC(C)C1O (stereo not drawn) : reported normalized growth = ?
1.02 (inactive)

Entry NCC(O)CC(=O)O (stereo not drawn) : reported normalized growth = ?
0.968 (inactive)

Entry COc1ccc(-c2cc(=O)c3c(O)c(OC)c(OC)c(OC)c3o2)cc1OC : reported normalized growth = ?
1 (inactive)

Entry Oc1ccc([C@H]2Oc3cc(O)cc(O)c3C[C@H]2O)cc1 : reported normalized growth = ?
0.99 (inactive)

Entry Nc1ccc(S(=O)(=O)Nc2ncccn2)cc1 : reported normalized growth = ?
0.992 (inactive)

Entry CC1CCCC(C)N1NC(=O)c1ccc(Cl)c(S(N)(=O)=O)c1 (stereo not drawn) : reported normalized growth = ?
1.01 (inactive)

Entry COc1ccc(-c2cc(=O)c3c(O)cc(O)cc3o2)cc1 : reported normalized growth = ?
1.01 (inactive)

Entry C[C@@H]1O[C@@H](O[C@H]2CC[C@]3(C=O)C4CC[C@]5(C)[C@@H](C6=CC(=O)OC6)CC[C@]5(O)C4CC[C@]3(O)C2)[C@H](O)[C@H](O)[C@H]1O (stereo partly drawn) : reported normalized growth = ?
0.999 (inactive)

Entry O=S(=O)(O)O : reported normalized growth = ?
0.955 (inactive)

Entry COc1ccc(-c2cc(=O)c3c(OC)c(OC)c(OC)c(OC)c3o2)cc1OC : reported normalized growth = ?
0.998 (inactive)

Entry CC1(C)S[C@@H]2C(N3C(=O)[C@@H](c4ccccc4)NC3(C)C)C(=O)N2[C@H]1C(=O)O (stereo partly drawn) : reported normalized growth = ?
1.03 (inactive)

Entry NC[C@H]1O[C@H](OC2[C@@H](N)C[C@@H](N)[C@H](O[C@H]3O[C@H](CO)[C@@H](O)[C@H](N)[C@H]3O)[C@H]2O)[C@H](O)[C@@H](O)[C@@H]1O (stereo partly drawn) : reported normalized growth = ?
0.995 (inactive)

Entry CC1=CC(=O)C2C(C)(C)CCC[C@]2(C)[C@@]1(O)CCc1ccoc1 (stereo partly drawn) : reported normalized growth = ?
0.99 (inactive)

Entry CN[C@H]1CC[C@@H](c2ccc(Cl)c(Cl)c2)c2ccccc21 : reported normalized growth = ?
0.647 (active)

Entry NCCCC(O)(P(=O)(O)O)P(=O)(O)O : reported normalized growth = ?
0.978 (inactive)

* * *

assay_details: chemical genetic growth profiling, strain panel (AID 1159580);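 further: tested at 20 µM; growth read once vehicle control cultures reached saturation at 30 °C; 1 = growth at the plate median or of vehicle wells; lower values mean less growth of the strain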
condition_summary: S. cerevisiae deletion strains, growth OD, locus YLR085C, strain ARP6, hits give low values
Hit rate of the full screen: of about 5,500 compounds, about 2,000 (36%) were called active. Not shown: some 18% with an inconclusive outcome. This is one part of the list.
So basically: is normalized growth under 1? Then rule met. Not under? Then rule not met.

Quick check: does CC(C)(C)C1=CC(=O)C=C(C(C)(C)C)C1=O have normalized growth under 1?
rule not met

Quick check: does O=C(Nc1ccccc1)N1CCN(C(c2ccccc2)c2ccccc2)CC1 have normalized growth under 1?
rule not met

Quick check: does NC(=NS(=O)(=O)c1cc(Cl)c(Oc2ccc([N+](=O)[O-])cc2Cl)c(Cl)c1)c1cccnc1 have normalized growth under 1?
rule not met

Quick check: does CCOC(=O)c1cnc2n(c1=O)CCS2 have normalized growth under 1?
rule not met

Quick check: does N#Cc1c(Cl)cccc1N1CCC(C(=O)NC(=O)Nc2ccc(Cl)cc2)CC1 have normalized growth under 1?
rule not met

Quick check: does CCOC(=O)/C(C#N)=C/Nc1ccc2c(c1)OCO2 have normalized growth under 1?
rule met

Quick check: does COc1cc(NC(=S)N2CCN(c3ccccc3OC)CC2)c(OC)cc1Cl have normalized growth under 1?
rule not met

Quick check: does COc1ccccc1NC(=S)NCCC(=O)O have normalized growth under 1?
rule not met

Quick check: does O=C(Nc1ccc(OC(F)(F)F)cc1)Nc1cccc(C(=O)O)c1 have normalized growth under 1?
rule not met

Quick check: does COC(OC)c1ccc(C#N)c(=S)[nH]1 have normalized growth under 1?
rule not met

Quick check: does O=C(Nc1ccc(Cl)cc1)N1CCN(c2ncccc2C(F)(F)F)CC1 have normalized growth under 1?
rule met

Quick check: does OCC(O)Cn1c2ccccc2c2ccccc21 (stereo not given) have normalized growth under 1?
rule met

Quick check: does COc1ccccc1N1CCN(C(=O)C(C)Nc2ccccn2)CC1 (stereo not given) have normalized growth under 1?
rule not met

Quick check: does COc1ccccc1N1CCN(C(=O)Nc2cc(Cl)cc(Cl)c2)CC1 have normalized growth under 1?
rule met

* * *

assay_details: chemical genetic growth profiling, strain panel (AID 1159580);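 further: tested at 20 µM; growth read once vehicle control cultures reached saturation at 30 °C; 1 = growth at the plate median or of vehicle wells; lower values mean less growth of the strain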
condition_summary: S. cerevisiae deletion strains, growth OD, locus YJL115W, strain asf1, hits give low values
In all, about 5,500 compounds went through this assay and about 2,000 (36%) were called active. Another 18% or so got no clear call; they are omitted. Some of the results follow.
For each entry below, report its normalized growth value.
Just the number, please, no unit attached.

Entry C=CCSC[C@@H](N)C(=O)O : reported normalized growth = ?
0.989

Entry C=CCSSSCC=C : reported normalized growth = ?
0.975

Entry NC[C@H]1O[C@H](OC2[C@@H](N)C[C@@H](N)[C@H](O[C@H]3O[C@H](CO)[C@@H](O)[C@H](N)[C@H]3O)[C@H]2O)[C@H](O)[C@@H](O)[C@@H]1O (some centres not stated) : reported normalized growth = ?
0.997

Entry CC(C)c1cccc(C(C)C)c1O : reported normalized growth = ?
0.983

Entry NS(=O)(=O)c1cc2c(cc1C(F)(F)F)NC(Cc1ccccc1)NS2(=O)=O (configuration not stated) : reported normalized growth = ?
0.966

Entry NCCCC(O)(P(=O)(O)O)P(=O)(O)O : reported normalized growth = ?
0.976

Entry CNC[C@H](O)c1cccc(O)c1 : reported normalized growth = ?
0.976

Entry NC(=O)c1cc([N+](=O)[O-])cc([N+](=O)[O-])c1 : reported normalized growth = ?
1.02

Entry Cc1c(C(N)=O)cc([N+](=O)[O-])cc1[N+](=O)[O-] : reported normalized growth = ?
1.03

Entry C=CCSSCC=C : reported normalized growth = ?
1.04

Entry NC(=O)c1ccc([N+](=O)[O-])cc1Cl : reported normalized growth = ?
0.986

Entry CC(C)c1cccc(O)c(=O)c1 : reported normalized growth = ?
0.0902
